target: KRAS G12D Ba/F3 (Homo sapiens, UniProt P01116, G12D, cells depend on it); experiment: Ba/F3 proliferation assay, KRAS G12D; format: cell-based; conditions: 72 h, AlamarBlue, read-out: KRAS G12D Ba/F3 IC50
Sequence (P01116 whole entry G12D): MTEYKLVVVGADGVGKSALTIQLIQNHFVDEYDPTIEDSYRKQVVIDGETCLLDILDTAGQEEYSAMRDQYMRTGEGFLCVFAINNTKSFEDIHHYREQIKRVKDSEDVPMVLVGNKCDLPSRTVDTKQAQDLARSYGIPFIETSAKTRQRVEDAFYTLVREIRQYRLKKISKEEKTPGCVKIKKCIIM

[
  {
    "molecule": "C[C@H](Oc1cc(Oc2cccnc2)nc(-c2onc3c2CCC[C@@]32CCCc3sc(N)c(C#N)c32)n1)[C@@H]1CCCN1C [Example I-2]",
    "test-target": "KRAS G12D Ba/F3 (Homo sapiens, UniProt P01116, G12D, cells depend on it)",
    "GI50": "6 nM"
  },
  {
    "molecule": "C[C@H](Oc1cc(O[C@@H]2CNC2(C)C)nc(-c2noc3c2CCC[C@@]32CCCc3sc(N)c(C#N)c32)n1)[C@@H]1C[C@@H](F)CN1C [II-31]",
    "test-target": "KRAS G12D Ba/F3 (Homo sapiens, UniProt P01116, G12D, cells depend on it)",
    "GI50": "3 nM"
  },
  {
    "molecule": "C[C@H](Oc1cc(N(C)C)nc(-c2noc3c2CCC[C@@]32CCCc3sc(N)c(C#N)c32)n1)[C@@H]1CCCN1C [II-10]",
    "test-target": "KRAS G12D Ba/F3 (Homo sapiens, UniProt P01116, G12D, cells depend on it)",
    "GI50": "81 nM"
  },
  {
    "molecule": "C[C@H](Oc1cc(OCC2(N(C)C)COC2)nc(-c2onc3c2CCC[C@@]32CCCc3sc(N)c(C#N)c32)n1)[C@@H]1CCCN1C [Example I-8]",
    "test-target": "KRAS G12D Ba/F3 (Homo sapiens, UniProt P01116, G12D, cells depend on it)",
    "GI50": "11 nM"
  },
  {
    "molecule": "C[C@H](Oc1cc(O[C@@H]2CNC[C@@H]2F)nc(-c2noc3c2CCC[C@@]32CCCc3sc(N)c(C#N)c32)n1)[C@@H]1CCCN1C [II-29]",
    "test-target": "KRAS G12D Ba/F3 (Homo sapiens, UniProt P01116, G12D, cells depend on it)",
    "GI50": "22 nM"
  },
  {
    "molecule": "C[C@H](Oc1cc(OCC2(N(C)C)CC2)nc(-c2noc3c2CCC[C@@]32CCCc3sc(N)c(C#N)c32)n1)[C@@H]1CCCN1C [II-21]",
    "test-target": "KRAS G12D Ba/F3 (Homo sapiens, UniProt P01116, G12D, cells depend on it)",
    "GI50": "22 nM"
  },
  {
    "molecule": "C[C@H](Oc1cc(Nc2ncco2)nc(-c2noc3c2CCC[C@@]32CCCc3sc(N)c(C#N)c32)n1)[C@@H]1CCCN1C [II-13]",
    "test-target": "KRAS G12D Ba/F3 (Homo sapiens, UniProt P01116, G12D, cells depend on it)",
    "GI50": "37 nM"
  },
  {
    "molecule": "C[C@H]1CN(C)CCCN1c1cc(O[C@@H]2CNC2(C)C)nc(-c2noc3c2CCC[C@@]32CCCc3sc(N)c(C#N)c32)n1 [II-28]",
    "test-target": "KRAS G12D Ba/F3 (Homo sapiens, UniProt P01116, G12D, cells depend on it)",
    "GI50": "130 nM"
  },
  {
    "molecule": "C[C@H](Oc1cc(Nc2ccncn2)nc(-c2noc3c2CCC[C@@]32CCCc3sc(N)c(C#N)c32)n1)[C@@H]1CCCN1C [II-15]",
    "test-target": "KRAS G12D Ba/F3 (Homo sapiens, UniProt P01116, G12D, cells depend on it)",
    "GI50": "59 nM"
  },
  {
    "molecule": "C[C@H](Oc1cc(Oc2nccs2)nc(-c2onc3c2CCC[C@@]32CCCc3sc(N)c(C#N)c32)n1)[C@@H]1CCCN1C [Example I-1]",
    "test-target": "KRAS G12D Ba/F3 (Homo sapiens, UniProt P01116, G12D, cells depend on it)",
    "GI50": "11 nM"
  },
  {
    "molecule": "C[C@H](Oc1cc(Oc2cncnc2)nc(-c2onc3c2CCC[C@@]32CCCc3sc(N)c(C#N)c32)n1)[C@@H]1CCCN1C [Example I-3]",
    "test-target": "KRAS G12D Ba/F3 (Homo sapiens, UniProt P01116, G12D, cells depend on it)",
    "GI50": "5 nM"
  },
  {
    "molecule": "C[C@H](Oc1cc(Nc2cccnn2)nc(-c2noc3c2CCC[C@@]32CCCc3sc(N)c(C#N)c32)n1)[C@@H]1CCCN1C [II-18]",
    "test-target": "KRAS G12D Ba/F3 (Homo sapiens, UniProt P01116, G12D, cells depend on it)",
    "GI50": "46 nM"
  }
]

====

Test system: SK-CO-1 cells
Assay: SK-CO-1 CTG proliferation assay (120 h) (CRC, G12V)
Assay type: cell-based
Settings: Homo sapiens
Protocol: SK-CO-1 cells (ATCC HTB-39) are dispensed into 384-well plates, flat and clear bottom (Greiner, PNr. 781091) at a density of 500 cells per well in 60 μL EMEM (Sigma M5650)+10% Fetal Calf Serum (HyClone, PNr.: SH30084.03) and incubated at 37° C. in a CO2 incubator overnight. […] Plates are incubated for 120 h, and cell viability is measured using CellTiter-Glo luminescent cell viability reagent (Promega product code G7570). […]
pIC50: −log10 of the molar value.
Outcome: YES for pIC50 of at least 7; NO for anything lower.

[
  {
    "molecule": "C[C@H](Oc1cc(O[C@@H]2CNC2(C)C)nc(-c2noc3c2CCC[C@@]32CCCc3sc(N)c(C#N)c32)n1)[C@@H]1CCCN1C [II-9]",
    "test-target": "SK-CO-1 cells",
    "discrete-label": "NO"
  },
  {
    "molecule": "CO[C@@H]1C[C@@H]([C@H](C)Oc2cc(O[C@@H]3CNC3(C)C)nc(-c3noc4c3CCC[C@@]43CCCc4sc(N)c(C#N)c43)n2)N(C)C1 [II-30]",
    "test-target": "SK-CO-1 cells",
    "discrete-label": "NO"
  },
  {
    "molecule": "C[C@H](Oc1cc(NCC2COC2)nc(-c2noc3c2CCC[C@@]32CCCc3sc(N)c(C#N)c32)n1)[C@@H]1CCCN1C [II-11]",
    "test-target": "SK-CO-1 cells",
    "discrete-label": "YES"
  },
  {
    "molecule": "C[C@H](Oc1cc(Oc2cnccn2)nc(-c2noc3c2CCC[C@@]32CCCc3sc(N)c(C#N)c32)n1)[C@@H]1CCCN1C [II-7]",
    "test-target": "SK-CO-1 cells",
    "discrete-label": "YES"
  },
  {
    "molecule": "COc1c(OCC2(N(C)C)COC2)nc(-c2noc3c2CCC[C@@]32CCCc3sc(N)c(C#N)c32)nc1O[C@@H](C)[C@@H]1CCCN1C [II-25]",
    "test-target": "SK-CO-1 cells",
    "discrete-label": "NO"
  }
]

====

Assay: Caco-2 assay
Format: in vitro ADME
Settings: human, Caco-2; apical to basolateral (a-b) permeability; 10 μM test compound, pH 7.4; read-out: Caco PappAB
Experimental: The assay provides information on the potential of a compound to pass the cell membrane, on the extent of oral absorption as well as on whether the compound is actively transported by uptake and/or efflux transporters. […] Concentrations of test compounds in samples were measured by HPLC/MS/MS, samples from the donor compartment were diluted 1:50 (v:v) with assay buffer, samples from receiver compartment were measured without dilution. […]
The threshold is 4 ×10⁻⁶ cm/s. Values of Papp A→B at 90 min, 10 μM beneath it are tagged condition met; values meeting or exceeding it are tagged condition not met.

[
  {
    "molecule": "C[C@H](Oc1cc(Oc2cncnc2)nc(-c2noc3c2CCC[C@@]32CCCc3sc(N)c(C#N)c32)n1)[C@@H]1CCCN1C [II-1]",
    "discrete-label": "condition not met"
  },
  {
    "molecule": "C[C@H](Oc1cc(Nc2ncco2)nc(-c2noc3c2CCC[C@@]32CCCc3sc(N)c(C#N)c32)n1)[C@@H]1CCCN1C [II-13]",
    "discrete-label": "condition not met"
  },
  {
    "molecule": "COCCOc1cc(O[C@@H](C)[C@@H]2CCCN2C)nc(-c2noc3c2CCC[C@@]32CCCc3sc(N)c(C#N)c32)n1 [II-5]",
    "discrete-label": "condition not met"
  },
  {
    "molecule": "C[C@H](Oc1cc(O[C@@H]2CNC2(C)C)nc(-c2noc3c2CCC[C@@]32CCCc3sc(N)c(C#N)c32)n1)[C@@H]1CCCN1C [II-9]",
    "discrete-label": "condition met"
  },
  {
    "molecule": "COc1c(OCC2(N(C)C)COC2)nc(-c2noc3c2CCC[C@@]32CCCc3sc(N)c(C#N)c32)nc1O[C@@H](C)[C@@H]1CCCN1C [II-25]",
    "discrete-label": "condition met"
  },
  {
    "molecule": "C[C@H](Oc1cc(Nc2ccncn2)nc(-c2noc3c2CCC[C@@]32CCCc3sc(N)c(C#N)c32)n1)[C@@H]1CCCN1C [II-15]",
    "discrete-label": "condition met"
  },
  {
    "molecule": "COC[C@H](C)Nc1cc(O[C@@H](C)[C@@H]2CCCN2C)nc(-c2onc3c2CCC[C@@]32CCCc3sc(N)c(C#N)c32)n1 [Example I-5]",
    "discrete-label": "condition not met"
  },
  {
    "molecule": "C[C@H](Oc1cc(N(C)C)nc(-c2noc3c2CCC[C@@]32CCCc3sc(N)c(C#N)c32)n1)[C@@H]1CCCN1C [II-10]",
    "discrete-label": "condition not met"
  },
  {
    "molecule": "C[C@H](Oc1cc(O[C@H]2CCOC2)nc(-c2noc3c2CCC[C@@]32CCCc3sc(N)c(C#N)c32)n1)[C@@H]1CCCN1C [II-4]",
    "discrete-label": "condition not met"
  },
  {
    "molecule": "C[C@H](Oc1cc(OCC2(N(C)C)COC2)nc(-c2noc3c2CCC[C@@]32CCCc3sc(N)c(C#N)c32)n1)[C@@H]1CCCN1C [II-22]",
    "discrete-label": "condition met"
  },
  {
    "molecule": "CO[C@@H]1C[C@@H]([C@H](C)Oc2cc(O[C@@H]3CNC3(C)C)nc(-c3noc4c3CCC[C@@]43CCCc4sc(N)c(C#N)c43)n2)N(C)C1 [II-30]",
    "discrete-label": "condition met"
  },
  {
    "molecule": "C[C@H](Oc1cc(Nc2cccnn2)nc(-c2noc3c2CCC[C@@]32CCCc3sc(N)c(C#N)c32)n1)[C@@H]1CCCN1C [II-18]",
    "discrete-label": "condition met"
  }
]
